study.target: SST2 (Homo sapiens, UniProt P30874)
Sequence (P30874 whole entry, species assumed): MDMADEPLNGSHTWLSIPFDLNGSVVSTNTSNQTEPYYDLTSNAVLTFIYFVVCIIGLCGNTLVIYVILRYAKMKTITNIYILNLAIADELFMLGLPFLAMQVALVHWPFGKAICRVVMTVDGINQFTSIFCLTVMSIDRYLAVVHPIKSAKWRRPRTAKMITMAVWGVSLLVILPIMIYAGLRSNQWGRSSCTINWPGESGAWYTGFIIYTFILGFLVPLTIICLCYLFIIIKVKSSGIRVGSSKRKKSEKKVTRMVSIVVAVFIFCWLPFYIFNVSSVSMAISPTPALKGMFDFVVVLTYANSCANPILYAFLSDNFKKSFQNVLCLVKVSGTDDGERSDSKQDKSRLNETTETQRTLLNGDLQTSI
pIC50: −log10 of the molar value.
attribute.measured: pIC50

1) C[C@@H](O)[C@H](NC(=O)C1CSSCC(NC(=O)C(Cc2ccccc2)NC(=O)CNC(=O)CNC(=O)[C@@H](CC(=O)O)NC(=O)C(CC(=O)O)NC(=O)[C@@H](CNC(=O)c2ccc([Si](F)(C(C)(C)C)C(C)(C)C)cc2)NC(=O)CCC(C(=O)O)N2CCN(CC(=O)O)CCN(CC(=O)O)CCN(CC(=O)O)CC2)C(=O)N[C@@H](Cc2ccc(O)cc2)C(=O)NC(Cc2c[nH]c3ccccc23)C(=O)N[C@@H](CCCCN)C(=O)N[C@@H]([C@@H](C)O)C(=O)N1)C(=O)O (stereo partly shown) (natGa complex, metal not drawn) [[Ga]6] = 6.83

---

assay.notes: Biodistribution of 18F-labeled SST2 ligands in AR42J tumor-bearing mice
Type: in vivo
condition.description: female, CD1 nu/nu, mouse, intestine, iv, total radioactivity, 1 h post injection, tail vein; read-out: Intestine % ID/g ± SD
attribute.measured: tissue uptake at 1 h (%ID/g)

1. C[C@@H](O)[C@H](NC(=O)C1CSSCC(NC(=O)C(Cc2ccccc2)NC(=O)CNC(=O)CNC(=O)[C@@H](CC(=O)O)NC(=O)C(CC(=O)O)NC(=O)[C@@H](CNC(=O)CN2CCN(CC(=O)O)CCN(CC(=O)O)CCN(CC(=O)O)CC2)NC(=O)C(CN)NC(=O)c2ccc([Si](F)(C(C)(C)C)C(C)(C)C)cc2)C(=O)N[C@@H](Cc2ccc(O)cc2)C(=O)NC(Cc2c[nH]c3ccccc23)C(=O)N[C@@H](CCCCN)C(=O)N[C@@H]([C@@H](C)O)C(=O)N1)C(=O)O (stereo partly shown) (natGa complex, metal not drawn) [[Ga]19] = 1.39

---

assay.notes: Octanol-water distribution coefficient (logD pH 7.4) of the labeled tracer
Format: physicochemical
condition.description: n-octanol/PBS pH 7.4, room temperature
# reported LogDpH=7.4; entries follow
attribute.measured: LogDpH=7.4

1. C[C@@H](O)[C@H](NC(=O)C1CSSCC(NC(=O)C(Cc2ccccc2)NC(=O)CNC(=O)CNC(=O)CNC(=O)C(CC(=O)O)NC(=O)[C@@H](CC(=O)O)NC(=O)C(CCCCN)NC(=O)[C@@H](CNC(=O)C[N+](C)(C)Cc2ccc([Si](F)(C(C)(C)C)C(C)(C)C)cc2)NC(=O)CN2CCN(CC(=O)O)CCN(CC(=O)O)CCN(CC(=O)O)CC2)C(=O)N[C@@H](Cc2ccc(O)cc2)C(=O)NC(Cc2c[nH]c3ccccc23)C(=O)N[C@@H](CCCCN)C(=O)N[C@@H]([C@@H](C)O)C(=O)N1)C(=O)O (some centres unmarked) [[Lu]45] = −2.10
2. C[C@@H](O)[C@H](NC(=O)C1CSSCC(NC(=O)C(Cc2ccccc2)NC(=O)CNC(=O)CNC(=O)CNC(=O)C(CC(=O)O)NC(=O)[C@@H](CC(=O)O)NC(=O)C(CCCNC(N)=O)NC(=O)[C@@H](CNC(=O)C[N+](C)(C)Cc2ccc([Si](F)(C(C)(C)C)C(C)(C)C)cc2)NC(=O)CN2CCN(CC(=O)O)CCN(CC(=O)O)CCN(CC(=O)O)CC2)C(=O)N[C@@H](Cc2ccc(O)cc2)C(=O)NC(Cc2c[nH]c3ccccc23)C(=O)N[C@@H](CCCCN)C(=O)N[C@@H]([C@@H](C)O)C(=O)N1)C(=O)O (some centres unmarked) [[Lu]46] = −2.12
